- Assay Details: in vitro
- Assay Setup: human
Lab note - cut at 20% for viability at 1 µM: true if strictly below, false if not.

{"Molecule": "N#CCc1ccc(Nc2nc(Nc3cccc(N)c3)c3ccccc3n2)cc1 [compound 3n]", "Class Label": "false"}
{"Molecule": "c1ccc2c(Nc3cc(C4CC4)[nH]n3)nc(Nc3ccc4cn[nH]c4c3)nc2c1 [compound 4de]", "Class Label": "false"}
{"Molecule": "O=C1CSC(Nc2nc(Nc3ccccc3)nc3ccccc23)=N1 [compound 26b]", "Class Label": "false"}
{"Molecule": "N#CCc1ccc(Nc2nc(NC3=NC(=O)CS3)c3ccccc3n2)cc1 [compound 3j]", "Class Label": "false"}
{"Molecule": "c1ccc2c(Nc3cc(C4CC4)[nH]n3)nc(Nc3ccc4[nH]ccc4c3)nc2c1 [compound 4db]", "Class Label": "true"}
{"Molecule": "N#CCc1ccc(Nc2nc(Nc3ccc(Cl)nn3)c3ccccc3n2)cc1 [compound 3i]", "Class Label": "false"}
{"Molecule": "c1ccc2c(Nc3cc(C4CC4)[nH]n3)nc(Nc3ccc4cc[nH]c4c3)nc2c1 [compound 4dc]", "Class Label": "false"}
{"Molecule": "c1ccc2c(Nc3cc(C4CC4)[nH]n3)nc(Nc3cccc4[nH]ccc34)nc2c1 [compound 4da]", "Class Label": "true"}
{"Molecule": "N#CCc1ccc(Nc2nc(Nc3nnc(C4CC4)s3)c3ccccc3n2)cc1 [compound 3l]", "Class Label": "false"}
{"Molecule": "c1ccc2c(Nc3cc(C4CC4)[nH]n3)nc(Nc3cnc4[nH]ccc4c3)nc2c1 [compound 4dg]", "Class Label": "true"}
{"Molecule": "N#CCc1ccc(Nc2nc(Nc3ccccc3F)c3ccccc3n2)cc1 [compound 3k]", "Class Label": "false"}

* * *

viability at 1 µM listing for selected compounds.
- Tested on: MCF7 breast cancer cell lines
- Assay Details: Cell viability analysis, WST-8 assay, MCF7
- Assay Setup: Homo sapiens, MCF7, 72 h, read-out: Cell viability (%) WST-8, MCF7 (1 µM), compound 1 µM, 72 hours

{"Compound": "c1ccc2c(Nc3cc(C4CC4)n[nH]3)nc(Nc3ccc4nc[nH]c4c3)nc2c1", "viability at 1 µM [%]": 78.4}
{"Compound": "CC(C)NC(=O)N1CC2CC1CN2c1nc(Nc2cc(C3CC3)[nH]n2)c2ccccc2n1 (centres unmarked) [compound 15b]", "viability at 1 µM [%]": 75.3}
{"Compound": "Brc1ccc(Nc2nc(Nc3cc(C4CC4)[nH]n3)c3ccccc3n2)cc1", "viability at 1 µM [%]": 47.7}
{"Compound": "Cc1cc(Nc2nc(N3CC4CC3CN4Cc3ccccc3)nc3ccccc23)n[nH]1 (centres unmarked) [compound 27f]", "viability at 1 µM [%]": 109}
{"Compound": "CC(C)(C)OC(=O)N1C2CCC1CN(c1nc(Nc3cc(C4CC4)[nH]n3)c3ccccc3n1)C2", "viability at 1 µM [%]": 74.8}
{"Compound": "O=C(c1ccccc1)N1CC2CC1CN2c1nc(Nc2cn[nH]c2)c2ccccc2n1 (centres unmarked) [compound 28d]", "viability at 1 µM [%]": 93.1}
{"Compound": "NCCCCNC(=O)c1ccc(Nc2nc(Nc3cc(C4CC4)[nH]n3)c3ccccc3n2)cc1", "viability at 1 µM [%]": 104}
{"Compound": "c1ccc2c(Nc3cc(C4CC4)[nH]n3)nc(N3CC4CCC(C3)N4)nc2c1", "viability at 1 µM [%]": 32}
